Assay: Cytotoxicity against human Huh-7 cells infected with DENV assessed as reduction in cell viability by microplate spectrophotometry
Assay type: toxicity, cell-based
value kind: CC50 (µM)
Give just the numeric value; µM need not be written.

Some molecules with recorded CC50:
record smiles | CC50 (µM)
Brc1ccc(/N=N/Nc2ccccn2)cc1 | 75.6
COc1ccc(/N=N/Nc2ccncc2)cc1 | 28.5
CN(/N=N/c1cccnc1)c1ccccc1 | 20.6

Turning now to a further record.
QUERY: Return reported CC50. Input molecule: "c1cncc(/N=N/N2CCCc3ccccc32)c1"
RESULT: 7.09

---

System: Dengue virus
Test: Antiviral activity against DENV infected in human Huh-7 cells assessed as reduction in viral growth incubated for 72 hrs by flow cytometry
Format: functional, organism-based
Details: Huh-7, 72 h
value kind: pEC50
Note: pEC50 values are expressed as the negative base-10 logarithm of concentration in M.

Some molecules with recorded pEC50:
molecule | experimental target | observed result
COc1ccc(/N=N/Nc2ncccc2C)cc1 | Dengue virus | 4.94
COc1ccc(/N=N/Nc2ccncc2)cc1 | Dengue virus | 4.32
Brc1cccc(/N=N/Nc2ccccn2)c1 | Dengue virus | 5.07
CN(/N=N/c1cccnc1)c1ccccc1 | Dengue virus | 4.93
Brc1ccc(/N=N/Nc2ccccn2)cc1 | Dengue virus | 5.09

QUERY: Return reported pEC50. Input molecule: "FC(F)(F)c1ccc(/N=N/n2ccnc2)cc1"
RESULT: 5.11

QUERY: Return reported pEC50. Input molecule: "c1ccc(/N=N/Nc2ccccn2)cc1"
RESULT: 4.97

QUERY: Return reported pEC50. Input molecule: "COc1ccc(/N=N/n2ccnc2)cc1"
RESULT: 4.49

QUERY: Return reported pEC50. Input molecule: O[C@H]1[C@H]2c3cc4c(cc3CN3CCC(=C[C@@H]1O)[C@H]23)OCO4 [LYCORINE]
RESULT: 5.77

QUERY: Return reported pEC50. Input molecule: NC(=O)c1ncn([C@@H]2O[C@H](CO)[C@@H](O)[C@H]2O)n1 [RIBAVIRIN]
RESULT: 4.39

QUERY: Return reported pEC50. Input molecule: "c1cncc(/N=N/N2CCCc3ccccc32)c1"
RESULT: 5.10

---

Below, each entry is listed alongside its reported selectivity ratio.
Experiment: Selectivity index, ratio of CC50 for human Huh-7 cells to EC50 for DENV infected in Huh-7 cells
Format: toxicity, cell-based
Conditions: read-out: Selectivity Index
// no unit string in output, number only

record smiles | selectivity ratio
COc1ccc(/N=N/n2ccnc2)cc1 | 2.22

Turning now to a further record.
QUERY: Return reported selectivity ratio. Input compound: "Brc1ccc(/N=N/Nc2ccccn2)cc1"
RESULT: 9.36

---

Below, each entry is listed alongside its reported CC50.
Assay: Cytotoxicity against human Huh-7 cells infected with DENV assessed as reduction in cell viability by microplate spectrophotometry
Format: toxicity, cell-based
Give just the numeric value; µM need not be written.

Some compounds with recorded CC50:
record smiles | value kind | observed result
c1ccc(/N=N/Nc2ccccn2)cc1 | CC50 | 22.1
COc1ccc(/N=N/Nc2ccccn2)cc1 | CC50 | 15.5
COc1ccc(/N=N/n2ccnc2)cc1 | CC50 | 72

QUERY: Return reported CC50. Input compound: "FC(F)(F)c1ccc(/N=N/Nc2ccncc2)cc1"
RESULT: 11.9

QUERY: Return reported CC50. Input compound: "CCN(CC)/N=N/c1ccc(OC)cc1"
RESULT: 24.4

QUERY: Return reported CC50. Input compound: "Brc1cccc(/N=N/Nc2ccccn2)c1"
RESULT: 27.4
